Reported 8OG:A repair function score is given for each of the following variants.
B1: library; numbered along this chain (parent)
chain: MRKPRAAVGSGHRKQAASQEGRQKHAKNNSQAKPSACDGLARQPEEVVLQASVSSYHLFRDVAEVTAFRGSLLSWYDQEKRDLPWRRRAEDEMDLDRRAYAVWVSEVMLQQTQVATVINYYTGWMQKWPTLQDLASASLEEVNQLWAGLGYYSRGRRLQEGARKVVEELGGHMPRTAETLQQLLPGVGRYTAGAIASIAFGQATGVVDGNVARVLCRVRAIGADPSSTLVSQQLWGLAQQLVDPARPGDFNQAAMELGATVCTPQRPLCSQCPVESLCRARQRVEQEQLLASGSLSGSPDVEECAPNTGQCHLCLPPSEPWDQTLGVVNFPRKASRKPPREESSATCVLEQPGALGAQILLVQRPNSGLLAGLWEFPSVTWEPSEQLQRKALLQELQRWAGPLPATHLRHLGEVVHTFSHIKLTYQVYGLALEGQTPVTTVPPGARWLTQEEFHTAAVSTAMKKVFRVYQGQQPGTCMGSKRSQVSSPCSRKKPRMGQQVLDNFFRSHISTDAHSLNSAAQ

variants of: B1; experiment: 8OG:A repair function score (normalized; synonymous = 0, nonsense = -1) (normalized log-likelihood score); higher = more repair activity (WT-like); conditions: with 8OG:A DNA repair reporter (GFP) in HEK-293 MUTYH KO cells;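 further: cells sorted at 72 h after reporter transfection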
QUANTITY MEASURED: 8OG:A repair function score

{"MUTATION ID": "G188N", "QUANTITY MEASURED": "8OG:A repair function score", "RECORDED RESULT": -0.923}
{"MUTATION ID": "T263L", "QUANTITY MEASURED": "8OG:A repair function score", "RECORDED RESULT": -0.0322}
{"MUTATION ID": "D61A", "QUANTITY MEASURED": "8OG:A repair function score", "RECORDED RESULT": -0.0921}
{"MUTATION ID": "G39P", "QUANTITY MEASURED": "8OG:A repair function score", "RECORDED RESULT": 0.0274}
{"MUTATION ID": "P273H", "QUANTITY MEASURED": "8OG:A repair function score", "RECORDED RESULT": -0.569}
{"MUTATION ID": "F453D", "QUANTITY MEASURED": "8OG:A repair function score", "RECORDED RESULT": -1.22}
{"MUTATION ID": "Y56Q", "QUANTITY MEASURED": "8OG:A repair function score", "RECORDED RESULT": -0.0234}
{"MUTATION ID": "T511S", "QUANTITY MEASURED": "8OG:A repair function score", "RECORDED RESULT": -0.0121}
{"MUTATION ID": "A354L", "QUANTITY MEASURED": "8OG:A repair function score", "RECORDED RESULT": -0.0264}
{"MUTATION ID": "W128S", "QUANTITY MEASURED": "8OG:A repair function score", "RECORDED RESULT": -0.935}
{"MUTATION ID": "R491L", "QUANTITY MEASURED": "8OG:A repair function score", "RECORDED RESULT": -0.00252}
{"MUTATION ID": "A254F", "QUANTITY MEASURED": "8OG:A repair function score", "RECORDED RESULT": 0.057}
{"MUTATION ID": "C304M", "QUANTITY MEASURED": "8OG:A repair function score", "RECORDED RESULT": -0.303}
{"MUTATION ID": "L149V", "QUANTITY MEASURED": "8OG:A repair function score", "RECORDED RESULT": -0.906}
{"MUTATION ID": "A334G", "QUANTITY MEASURED": "8OG:A repair function score", "RECORDED RESULT": -0.0343}
{"MUTATION ID": "E413N", "QUANTITY MEASURED": "8OG:A repair function score", "RECORDED RESULT": -0.0589}
{"MUTATION ID": "E92N", "QUANTITY MEASURED": "8OG:A repair function score", "RECORDED RESULT": -0.0998}
{"MUTATION ID": "L295M", "QUANTITY MEASURED": "8OG:A repair function score", "RECORDED RESULT": -0.0314}
{"MUTATION ID": "C477M", "QUANTITY MEASURED": "8OG:A repair function score", "RECORDED RESULT": 0.00893}
{"MUTATION ID": "L369W", "QUANTITY MEASURED": "8OG:A repair function score", "RECORDED RESULT": 0.187}
{"MUTATION ID": "P225A", "QUANTITY MEASURED": "8OG:A repair function score", "RECORDED RESULT": -0.238}
{"MUTATION ID": "I195G", "QUANTITY MEASURED": "8OG:A repair function score", "RECORDED RESULT": -0.964}
{"MUTATION ID": "A291N", "QUANTITY MEASURED": "8OG:A repair function score", "RECORDED RESULT": 0.0139}
{"MUTATION ID": "L234Y", "QUANTITY MEASURED": "8OG:A repair function score", "RECORDED RESULT": -0.976}
{"MUTATION ID": "S136D", "QUANTITY MEASURED": "8OG:A repair function score", "RECORDED RESULT": 0.029}
{"MUTATION ID": "G444R", "QUANTITY MEASURED": "8OG:A repair function score", "RECORDED RESULT": -0.119}
{"MUTATION ID": "S74W", "QUANTITY MEASURED": "8OG:A repair function score", "RECORDED RESULT": -0.0127}
{"MUTATION ID": "Y190K", "QUANTITY MEASURED": "8OG:A repair function score", "RECORDED RESULT": -1.27}
{"MUTATION ID": "P474S", "QUANTITY MEASURED": "8OG:A repair function score", "RECORDED RESULT": -0.00281}
{"MUTATION ID": "S231M", "QUANTITY MEASURED": "8OG:A repair function score", "RECORDED RESULT": 0.155}
{"MUTATION ID": "Q363R", "QUANTITY MEASURED": "8OG:A repair function score", "RECORDED RESULT": 0.0264}
{"MUTATION ID": "W447C", "QUANTITY MEASURED": "8OG:A repair function score", "RECORDED RESULT": -1.09}
{"MUTATION ID": "V261C", "QUANTITY MEASURED": "8OG:A repair function score", "RECORDED RESULT": -0.11}
{"MUTATION ID": "L183K", "QUANTITY MEASURED": "8OG:A repair function score", "RECORDED RESULT": -0.0447}
{"MUTATION ID": "V102R", "QUANTITY MEASURED": "8OG:A repair function score", "RECORDED RESULT": -1.41}
{"MUTATION ID": "Q126T", "QUANTITY MEASURED": "8OG:A repair function score", "RECORDED RESULT": 0.049}
{"MUTATION ID": "T380G", "QUANTITY MEASURED": "8OG:A repair function score", "RECORDED RESULT": 0.0924}
{"MUTATION ID": "C216Y", "QUANTITY MEASURED": "8OG:A repair function score", "RECORDED RESULT": -0.886}
{"MUTATION ID": "T176V", "QUANTITY MEASURED": "8OG:A repair function score", "RECORDED RESULT": -0.285}
{"MUTATION ID": "A259V", "QUANTITY MEASURED": "8OG:A repair function score", "RECORDED RESULT": -0.765}
